Provenance of the data: a melting point compilation (Tetko et al.; mined from patent text by program, amines drawn as free bases though some values may be those of a salt)

For each entry below, report its melting point value.

Request: Given the compound O=C(O)c1cc(OCCCOc2cccc(-c3ccccc3)c2)cc(OCCCOc2cccc(-c3ccccc3)c2)c1 , write its reported melting point.
Result: 65 to 69 °C

Request: Using the record for COC(=O)C(=O)c1nccn1Cc1cccs1 , state its measured melting point.
Result: 72.5 to 74.5 °C

Request: Answer with the recorded melting point for the compound listed here: OCC1(Cc2ccc(Cl)c(Cl)c2)CCNCC1
Result: 148 to 149 °C

Request: Please list melting point recorded for the compound C#CCn1nnc2cc3c(=O)n(C(C)Cn4ncnn4)nnc3cc2c1=O (stereo not given)
Result: 209 to 211 °C

Request: Supply measured melting point of COc1ccc2cc(C(=O)CNC(=O)c3cn(C)c4ccccc34)ccc2c1 in your reply.
Result: 177 to 180 °C

* * *

Endpoint Label: melting point

Request: For the compound O=[N+]([O-])c1ccc2[nH]cc(C3=CCC4(CC3)OCCO4)c2c1 , give its measured melting point value.
Result: 175 to 177 °C

Request: Read the entry N#Cc1ccc(C2CC(=O)c3ccccc3N2)cc1 (stereo unspecified) and write its reported melting point.
Result: 206 to 208 °C

Request: Supply melting point value. Item: CC(C)(C)OC(=O)N1CCC2(CC1)C(=O)Nc1ccccc12
Result: 138 to 140 °C

Request: For the compound CCOc1ccc2c(c1)n(C1CCCCC1)c(=O)n2S(=O)(=O)c1ccc(NC(=O)N(CC)CC)cc1OC , give its reported melting point.
Result: 165 °C

Request: Tell me its melting point given Cc1cc(OC2CCCC2)ccc1NC(=O)OC(C)(C)C as the entry.
Result: 75 to 77 °C

Request: Please supply the value of reported melting point for the item CC(=O)NC[C@H]1CN(c2ccc(C(=O)c3cnc4c([N+](=O)[O-])cccn34)cc2)C(=O)O1
Result: 229 to 230 °C

Request: Give the measured melting point for CCc1nn(C2CCCC2)c2cc(C(=O)Nc3ccc(C(=O)OC)cc3)ccc12
Result: 129 to 132 °C

Request: Name the recorded melting point of the compound listed here: CCCCOc1ccc(-c2nnc(Nc3ccc(Cl)c(Cl)c3)s2)cc1
Result: 233 to 235 °C

Request: Identify the reported melting point for the following entry. Cc1cccc(C(=O)Nc2c[nH]nc2C(=O)NCCC(=O)O)n1
Result: 246 to 247 °C

Request: Determine its reported melting point: O=C(O)c1ccc(Sc2ccc(O)cc2)cc1
Result: 196 to 200 °C

Request: Identify measured melting point corresponding to C#Cc1ccc(C#C)cc1
Result: 91 to 92 °C

Request: // Input: CN1CCC23c4c5ccc(O)c4OC2C(OC2OC(C(=O)O)C(O)C(O)C2O)C=CC3C1C5 (stereo unspecified) . Output its melting point only.
Result: 240 to 243 °C

Request: Return melting point for the following compound: CCOC(=O)Cc1nc(Cl)c(Cl)s1
Result: 63 °C

Request: Write down melting point measured for item CCOCc1cc(I)c(=O)[nH]c1C
Result: 220 to 222 °C

Request: Query melting point for COc1ccc2[nH]cc3c2c1[C@@]1(C)OCCN(C)[C@@H]1C3 (relative stereo)
Result: 200 to 202 °C

Request: Supply reported melting point belonging to this compound: COC(=O)C(C)CC(=O)C(Cc1ccccc1)NC(=O)c1ccccc1 (stereo unspecified)
Result: 97 to 98.5 °C

Request: Provide only the value of recorded melting point for Cc1cc(C(C)(C)C)c(O)c(C)c1CSP(=S)(C1CCCCC1)C1CCCCC1
Result: 113 to 116 °C

Request: Entry O=[N+]([O-])c1cc(Cl)c(Cl)cc1-n1cccc1 needs its melting point filled in; supply it.
Result: 69.5 to 70.5 °C

Request: Look up and report measured melting point for this entry: COc1ccc2oc(Cc3cc(C(F)(F)F)cc(C(F)(F)F)c3)c(CC#N)c2c1
Result: 112 °C

Request: Specify reported melting point for the compound shown: CC(C)N1Cc2cccc(F)c2N(CCN2CC=C(c3c[nH]c4cc(F)ccc34)CC2)S1(=O)=O
Result: 199 to 201 °C

Request: State its melting point: COc1ccc(NC(=O)N(Cc2ccccn2)C2CCCCCC2)c(NC(=O)c2cc(C(C)(C)C)c(O)c(C(C)(C)C)c2)c1
Result: 165 to 166 °C
